assay: RFU comparison of solutions to release OsteoSense 750 from HA; conditions: 5% solution, pH 6.5, room temperature
measure: % released of total reference value (%)
Give bare numbers, in %.

Please review the following examples before continuing.
- O=P([O-])(O)O.[Na+] [sodium phosphate monobasic (M), sodium phosphate monobasic]: 31.74
- O=P([O-])([O-])O.[Na+].[Na+] [sodium phosphate dibasic (D), sodium phosphate dibasic]: 14.63
- O=P(O)(O)O [phosphoric acid (PA), phosphoric acid]: 39.54

Shift focus to the following entry.
Could you please provide reported % released of total reference value for O=P(O)(O)CP(=O)(O)O [methylene phosphoric acid (MDP), methylene phosphoric acid] ? Thanks! 27.41

Source: patent US20140093457A1
